# Tested on: T47D
# Test Name: Antiestrogenic activity in human T47D cells assessed as drug level causing inhibition of 100 pM E2-enhanced cell proliferation to level equivalent to 1 pM E2 after 96 hrs by alamar blue assay
# Assay type: functional
Reported Activity values are given for each entry in this list.
Measurement Type: Activity

1) COc1cc(/C=C/CO)ccc1O[C@@H]1O[C@H](COC(=O)/C=C/c2ccc(O)c(O)c2)[C@@H](O)[C@H](O)[C@H]1O [KHAINAOSIDE C] :: >100 µM
2) COc1cc(C[C@H](CO)[C@@H](CO[C@@H]2O[C@H](CO)[C@@H](O)[C@H](O)[C@H]2O)Cc2cc(OC)c(O)c(OC)c2)cc(OC)c1O :: >100 µM
3) COc1cc([C@H]2OC[C@H]3[C@@H]2CO[C@@H]3c2cc(OC)c(O[C@@H]3O[C@H](CO)[C@@H](O)[C@H](O)[C@H]3O)c(OC)c2)ccc1O :: >100 µM
4) COc1cc([C@H](O[C@@H]2O[C@H](CO)[C@@H](O)[C@H](O)[C@H]2O)[C@@H](CO)Oc2c(OC)cc(/C=C/CO)cc2OC)ccc1O :: >100 µM
5) COc1cc([C@H]2OC[C@H]3[C@@H]2CO[C@@H]3c2cc(OC)c(O)c(OC)c2)ccc1O[C@@H]1O[C@H](CO)[C@@H](O)[C@H](O)[C@H]1O [ISOEUCOMMIN A] :: >100 µM
6) COc1cc(O[C@@H]2O[C@H](CO)[C@@H](O)[C@H](O)[C@H]2O)cc(OC)c1O [KOABURASIDE] :: 70 µM

----------
# System: T47D
# Test Name: Antiestrogenic activity in human T47D cells assessed as drug level causing inhibition of 100 pM E2-enhanced cell proliferation to level equivalent to 1 pM E2 after 96 hrs by alamar blue assay
# Type: functional
Measurement Type: Activity

1. COc1cc([C@H]2Oc3c(OC)cc(/C=C/CO)cc3[C@@H]2CO)ccc1O[C@@H]1O[C@H](CO)[C@@H](O)[C@H](O)[C@H]1O :: >100 µM
2. COc1cc(/C=C/C(=O)O[C@H]2C[C@@H]3C(C(=O)O)=CO[C@@H](O[C@@H]4O[C@H](CO)[C@@H](O)[C@H](O)[C@H]4O)[C@@H]3[C@@H]2C)ccc1O [KHAINAOSIDE B] :: >100 µM
3. OC[C@H]1O[C@@H](Oc2cc([C@H]3OC[C@]4(O)[C@@H](c5ccc6c(c5)OCO6)OC[C@]34O)ccc2O)[C@H](O)[C@@H](O)[C@@H]1O [KHAINAOSIDE A] :: 3 µM
4. COc1cc(O)ccc1O[C@@H]1O[C@H](CO[C@@H]2OC[C@@H](O)[C@H](O)[C@H]2O)[C@@H](O)[C@H](O)[C@H]1O [CAPPAROSIDE A] :: >100 µM
5. COc1cc([C@H]2OC[C@H]3[C@@H]2CO[C@@H]3c2ccc(O[C@@H]3O[C@H](CO)[C@@H](O)[C@H](O)[C@H]3O)c(OC)c2)ccc1O :: >100 µM
6. O=c1cc(-c2ccc(O)cc2)oc2cc(O[C@@H]3O[C@H](CO)[C@@H](O)[C@H](O)[C@H]3O)cc(O)c12 :: 2 µM
7. OC/C=C/c1ccc2c(c1)O[C@H](c1ccc(O)c(O)c1)[C@@H](CO)O2 :: >100 µM
8. CCCc1ccc(O[C@@H]2O[C@H](CO)[C@@H](O)[C@H](O)[C@H]2O)c(OC)c1 :: >100 µM
9. C[C@@H](/C=C/[C@]1(O)[C@]2(C)CO[C@@]1(C)CC(=O)C2)O[C@@H]1O[C@H](CO)[C@@H](O)[C@H](O)[C@H]1O [SPIONOSIDE B] :: >100 µM
10. OC[C@@H]1Oc2ccc([C@H]3OC[C@H]4[C@@H]3CO[C@@H]4c3ccc(O)c(O)c3)cc2O[C@H]1c1ccc(O)c(O)c1 [PRINCEPIN] :: 6 µM
11. COc1cc(O)cc(OC)c1O[C@@H]1O[C@H](CO)[C@@H](O)[C@H](O)[C@H]1O [LEONURISIDE] :: >100 µM
12. COc1cc([C@H]2OC[C@H]3[C@@H]2CO[C@@H]3c2cc(OC)c(O)c(OC)c2)cc(OC)c1O :: 7 µM
13. Oc1ccc([C@H]2OC[C@H]3[C@@H]2CO[C@@H]3c2ccc(O)c(O)c2)cc1O :: 73 µM
